system: BT-549; test: NCI tumour cell line growth inhibition, 48 h
Calls of active or inactive are those of the source. Rule as the data show it: active = GI50 up to about 1.1 µM and inactive = higher.
Return exactly one item of active, inactive

>>> df
                                   molecule  measured_on  category_label
0  COc1ccc(N2C(=O)C3c4[nH]c5ccc(Br)cc5c4C4CCC(C(C)(C)C)CC4C3C2=O)cc1 (stereo not given)       BT-549        inactive
1           CC(=O)c1csc2c1C(=O)c1ccccc1C2=O       BT-549        inactive

**Q:** Look up the recorded call for COc1cc2oc3c(c(=O)c2c(O)c1/C=C/C(C)C)C(C=C(C)C)Oc1cc(O)ccc1-3 (stereo not given) in this test.
**A:** inactive

**Q:** Look up the recorded call for CSc1c(CC(=O)O)n(Cc2ccccc2)c2ccccc12 in this test.
**A:** inactive

**Q:** Look up the recorded call for COc1ccc2c(c1O)-c1c(OC)c(OC)cc3c1[C@H](C2)[N+](C)(C)CC3 in this test.
**A:** inactive

**Q:** Look up the recorded call for COC(=O)CC1C2(C)C3=C(C)C(c4ccoc4)CC3OC2C2OC(=O)C3(C)C=CC(=O)C1(C)C23 (stereo not given) in this test.
**A:** active

**Q:** Look up the recorded call for Cc1ccc(/N=N/c2c(O)c(C(=O)O)cc3ccccc23)cc1C in this test.
**A:** inactive

**Q:** Look up the recorded call for C=C1CC(Cn2cc(Br)c(=O)[nH]c2=O)(c2ccc(-c3ccccc3)cc2)OC1=O (stereo not given) in this test.
**A:** inactive

**Q:** Look up the recorded call for O=C(/C=C/c1ccccc1)OCC1=C[C@@H](O)[C@@H]2C=CO[C@@H](OC3OC(CO)C(O)C(O)C3O)[C@H]12 (stereo not given in full) in this test.
**A:** inactive

**Q:** Look up the recorded call for O=c1[nH]c(-c2ccc(Cl)cc2)cc2ccsc12 in this test.
**A:** inactive

**Q:** Look up the recorded call for COc1ccc(C[C@@H]2CN(C(=O)c3ccccc3)[C@H](Cc3ccc(O)cc3)CN2C(=O)c2ccccc2)cc1Br in this test.
**A:** inactive

**Q:** Look up the recorded call for C=C(CN(C)C)C(=O)c1ccc(OC)cc1 in this test.
**A:** inactive

**Q:** Look up the recorded call for Nc1nc(N)c2nc(CNc3ccc(C(=O)NC(CCNC(=O)c4ccccc4C(=O)O)C(=O)O)cc3)cnc2n1 (stereo not given) in this test.
**A:** inactive

**Q:** Look up the recorded call for N#Cc1c(-c2ccccc2)c(C=O)c(=O)n2c1[nH]c1ccccc12 in this test.
**A:** inactive

**Q:** Look up the recorded call for COC(=O)C1=C(O)C(C(=O)OC)[C@]2(O)[C@H](C(=O)OC)[C@H]1C[C@@H](c1ccc(O)cc1)[C@H]2C(=O)OC (stereo not given in full) in this test.
**A:** inactive

**Q:** Look up the recorded call for ClCc1nn(-c2ccccc2)c(CCl)c1CCl in this test.
**A:** inactive

**Q:** Look up the recorded call for Nc1cc(N2CCOCC2)nc(=O)n1-c1ccccc1 in this test.
**A:** inactive

**Q:** Look up the recorded call for CC(C)C(C/C=C1\CC(CO)(COC(=O)C(C)(C)C)OC1=O)C(C)C (stereo not given) in this test.
**A:** inactive

**Q:** Look up the recorded call for CC(C)(C)[Si](C)(C)OCC1OC(n2ccc(=O)[nH]c2=O)C(O[Si](C)(C)C(C)(C)C)[C@@]12O[C@H]2C(N)=O (stereo not given in full) in this test.
**A:** inactive

**Q:** Look up the recorded call for C=CCOC(=O)C[C@H](NC(=O)[C@H](Cc1ccc(O)cc1)NCC(F)(F)F)C(=O)OCC=C in this test.
**A:** inactive

**Q:** Look up the recorded call for CCOC(=O)c1ccc(-c2cccs2)n1C in this test.
**A:** inactive

**Q:** Look up the recorded call for ClCCCc1ccccc1C1=NCCc2ccccc21 in this test.
**A:** inactive

**Q:** Look up the recorded call for N[C@H](C(=O)O)[C@@H]1CC(Cl)=NO1 in this test.
**A:** inactive

**Q:** Look up the recorded call for CC(C)(C)OC(=O)N1C(C2=COc3ccccc3O2)=COc2ccccc21 in this test.
**A:** inactive

**Q:** Look up the recorded call for CCSc1nc(-c2cccs2)nc2ccc(I)cc12 in this test.
**A:** inactive

Where these numbers come from: ChEMBL document CHEMBL1201862
